- assayed target: recombinant mouse NAPE-PLD (Mus musculus)
- Construct: hexahistidine (His6) (C); made in house; host or cells: E. coli
- Sequence (Q8BH82 whole entry): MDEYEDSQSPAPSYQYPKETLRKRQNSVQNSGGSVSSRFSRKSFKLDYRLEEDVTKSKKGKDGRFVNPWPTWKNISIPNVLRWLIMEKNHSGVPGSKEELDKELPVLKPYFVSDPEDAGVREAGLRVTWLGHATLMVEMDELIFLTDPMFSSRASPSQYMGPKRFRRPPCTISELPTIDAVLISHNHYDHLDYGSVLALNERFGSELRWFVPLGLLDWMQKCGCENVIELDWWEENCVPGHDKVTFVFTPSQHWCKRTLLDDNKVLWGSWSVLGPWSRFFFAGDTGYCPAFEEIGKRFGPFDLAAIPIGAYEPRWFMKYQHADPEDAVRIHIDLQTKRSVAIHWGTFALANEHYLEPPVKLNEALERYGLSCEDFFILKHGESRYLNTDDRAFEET
- experimental protocol: In vitro fluorescence NAPE-PLD activity assay (HTS/CRC) with recombinant mouse NAPE-PLD and PED-A1
- Format: biochemical
- cond: Table 1; concentration for 50% maximum activation from basal activity (no activator)
quantity: AC50 (µM)
Report only the number, with the unit µM understood.

Below, 3 molecules whose answers are already recorded.
Cc1ccc2nc(NC(=O)C3CCN(S(=O)(=O)c4ccc(Cl)cc4)CC3)sc2c1 [VU539]    2.38
Cc1ccc(S(=O)(=O)N2CCC(C(=O)Nc3nc4c(C)cc(C)cc4s3)CC2)cc1 [VU575]    0.95
Cc1cc2nc(NC(=O)C3CCN(S(=O)(=O)c4ccc(F)cc4)CC3)sc2cc1C [VU536]    1.54

Query: AC50; subject: Cc1cc(C)c2sc(NC(=O)C3CCN(S(=O)(=O)c4ccc(F)cc4)CC3)nc2c1 [VU534] 0.27

Given Cc1ccc2sc(NC(=O)C3CCN(S(=O)(=O)c4ccc(F)cc4)CC3)nc2c1C [VU517] , state its recorded AC50. 0.767

Given the entry COc1ccc(S(=O)(=O)N2CCC(C(=O)Nc3nc4c(C)cccc4s3)CC2)cc1 [VU605] , report its measured AC50. 1.04
